# tested-target: HPEPT1 (Homo sapiens)
# Sequence (P46059 whole entry): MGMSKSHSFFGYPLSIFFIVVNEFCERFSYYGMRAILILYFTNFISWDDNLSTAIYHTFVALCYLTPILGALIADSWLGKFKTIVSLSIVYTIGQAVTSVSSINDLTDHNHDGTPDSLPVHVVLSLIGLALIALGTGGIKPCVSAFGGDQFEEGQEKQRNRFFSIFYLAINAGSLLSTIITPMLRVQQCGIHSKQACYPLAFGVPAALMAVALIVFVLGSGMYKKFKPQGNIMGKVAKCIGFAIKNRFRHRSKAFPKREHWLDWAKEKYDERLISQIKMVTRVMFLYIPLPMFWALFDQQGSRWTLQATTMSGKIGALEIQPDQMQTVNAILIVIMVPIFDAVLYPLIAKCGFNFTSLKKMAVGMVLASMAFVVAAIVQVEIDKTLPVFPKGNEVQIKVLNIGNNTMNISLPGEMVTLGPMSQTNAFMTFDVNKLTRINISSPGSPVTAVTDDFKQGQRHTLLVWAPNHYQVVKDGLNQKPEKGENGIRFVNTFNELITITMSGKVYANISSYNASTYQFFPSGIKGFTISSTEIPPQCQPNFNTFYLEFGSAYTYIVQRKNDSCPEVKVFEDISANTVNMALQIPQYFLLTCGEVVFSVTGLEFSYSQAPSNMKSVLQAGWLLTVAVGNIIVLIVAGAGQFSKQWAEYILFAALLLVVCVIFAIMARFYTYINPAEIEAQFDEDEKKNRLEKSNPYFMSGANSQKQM
# study-conditions: ratio of uptake in hPepT1 cells versus control cells
measure-name: hPepT1/Control

{"smiles-data": "N[C@@H](Cc1ccccc1)C(=O)OC[C@H]1O[C@@H](n2cc(F)c(=O)[nH]c2=O)C[C@@H]1OC(=O)[C@@H](N)Cc1ccccc1", "observed-value": 9.53}
{"smiles-data": "CC(C)[C@H](N)C(=O)OC[C@H]1O[C@@H](n2ccc(N)nc2=O)C(F)(F)[C@@H]1OC(=O)[C@@H](N)C(C)C", "observed-value": 1.15}
{"smiles-data": "CC[C@H](C)[C@H](N)C(=O)O[C@@H]1[C@@H](CO)O[C@@H](n2ccc(N)nc2=O)C1(F)F", "observed-value": 1.09}

* * *

t1/2 Human plasma listing for selected molecules.

{"molecule": "CC(C)[C@H](N)C(=O)O[C@@H]1[C@@H](CO)O[C@@H](n2ccc(N)nc2=O)C1(F)F [3′-O-L-valyl Gemcitabine]", "t1/2 Human plasma, min": 5.4}
{"molecule": "CC(C)[C@@H](N)C(=O)OC[C@H]1O[C@@H](n2ccc(N)nc2=O)C(F)(F)[C@@H]1O [5′-O-D-valyl Gemcitabine]", "t1/2 Human plasma, min": 58.1}
{"molecule": "Nc1ccn([C@@H]2O[C@H](CO)[C@@H](OC(=O)[C@@H](N)Cc3ccccc3)C2(F)F)c(=O)n1 [3′-O-L-phenylalanyl Gemcitabine]", "t1/2 Human plasma, min": 5.7}
{"molecule": "Nc1ccn([C@@H]2O[C@H](COC(=O)[C@@H](N)Cc3ccccc3)[C@@H](O)C2(F)F)c(=O)n1 [5′-O-L-phenylalanyl Gemcitabine]", "t1/2 Human plasma, min": 8.4}
{"molecule": "Nc1ccn([C@@H]2O[C@H](COC(=O)[C@@H](N)Cc3ccccc3)[C@@H](OC(=O)[C@@H](N)Cc3ccccc3)C2(F)F)c(=O)n1 [3′,5′-di-O-L-phenylalanyl gemcitabine]", "t1/2 Human plasma, min": 0.7}
{"molecule": "CC(C)[C@@H](N)C(=O)OC[C@H]1O[C@@H](n2ccc(N)nc2=O)C(F)(F)[C@@H]1OC(=O)[C@H](N)C(C)C [3′,5′-di-O-D-valyl gemcitabine]", "t1/2 Human plasma, min": 2.1}

* * *

t1/2 Caco-2 cell homogenates listing for selected molecules.

{"smiles-data": "CC(C)[C@@H](N)C(=O)O[C@@H]1[C@@H](CO)O[C@@H](n2ccc(N)nc2=O)C1(F)F", "t1/2 Caco-2 cell homogenates, min": 23.2}
{"smiles-data": "CC(C)[C@H](N)C(=O)OC[C@H]1O[C@@H](n2ccc(N)nc2=O)C(F)(F)[C@@H]1O", "t1/2 Caco-2 cell homogenates, min": 7.1}
{"smiles-data": "Nc1ccn([C@@H]2O[C@H](COC(=O)[C@@H](N)Cc3ccccc3)[C@@H](OC(=O)[C@@H](N)Cc3ccccc3)C2(F)F)c(=O)n1", "t1/2 Caco-2 cell homogenates, min": 0.6}

* * *

# test-name: Caco-2 monolayer transport and stability
# Type: in vitro ADME
# study-conditions: human, Caco-2, pH 6

{"molecule": "Nc1ncnc2c1ncn2[C@@H]1O[C@H](CO)[C@@H](O)[C@@H]1O [Ara A, Adenine 9-beta-D-arabinofuranoside, reference compound]", "Papp A→B at 2 h, 0.2 mM [×10⁻⁶ cm/s]": 1.42}
